Parameter INHIBITION: see the listing below.
# Test system: Plasmodium berghei
# assay-method-text: Screen against P. berghei liver stage (PbLuc), transformed with Luciferase, at 2uM
# Format: functional, HepG2
# condition-summary: tested at 2 uM
Among all 68,000 compounds or so, about 2,700 (4%) showed an effect of 50% or more. This is one part of a sample in which strong results are shown more often than they occur.
Write the number in % without appending the unit.

Cc1cnn(CCNCc2ccc(OCc3ccncc3)cc2)c1; 40.88
O=C(Nc1cc(-c2ccccc2)on1)N1CCN(CCO)CC1; 45.19

### Prompt Please give the measured INHIBITION for this molecule: COCC(c1cccc(C(F)(F)F)c1)N(C)C(=O)c1ccncc1 (configuration not stated)
### Response 14.82

### Prompt Please answer likewise for Cc1cnn(CC(C)NCc2ccc(OCc3cccnc3)cc2)c1 (configuration not stated)
### Response 16.18

### Prompt Please answer likewise for `O=C(Nc1cc(-c2ccccc2)on1)N1CC[C@H](O)C1`
### Response -9.71

### Prompt Please answer likewise for `Cc1cnn(CCNCc2ccc(OCc3cccnc3)cc2)c1`
### Response 88.86

### Prompt Please answer likewise for `Cc1cnn(CCNCc2cccnc2)c1`
### Response 0.9

### Prompt Please answer likewise for O=C(NCC1CCOC1)c1csc(-c2cccc(Cl)c2)n1 (configuration not stated)
### Response 25.74

### Prompt Please answer likewise for CCC(=O)NC1CCCN(C(=O)Nc2cc(-c3ccccc3)on2)C1 (configuration not stated)
### Response 80.45

### Prompt Please answer likewise for COCC(c1cccc(C(F)(F)F)c1)N(C)C(=O)c1cc(C)n[nH]1 (configuration not stated)
### Response 51.21

### Prompt Please answer likewise for Cc1cnn(CC(C)NCc2cccnc2)c1 (configuration not stated)
### Response 8.13

### Prompt Please answer likewise for Cc1cccc(C(=O)N2CCCCC2c2nc3cc(F)ccc3[nH]2)n1 (configuration not stated)
### Response 65.04

###

Parameter INHIBITION: see the listing below.
# Tested on: Plasmodium berghei
# assay-method-text: Screen against P. berghei liver stage (PbLuc), transformed with Luciferase, at 2uM
# Assay type: functional, HepG2
# condition-summary: tested at 2 uM
In all, about 68,000 compounds went through this assay and about 2,700 (4%) showed an effect of 50% or more. Shown is part of a subset that was picked to be rich in strong results.
Write the number in % without appending the unit.

Here is how some compounds turned out for INHIBITION.
CCNC(=O)c1cn(C(C)(C)C)c2ncccc12; 40.4
Cc1ccc(-n2cc(C(=O)N3CCCC(n4cccn4)C3)nn2)cc1 (configuration not stated); 18.59
CC(C)NC(=O)N1CCCCC1c1nnc2n1CCNC2 (configuration not stated); -15.93

Alright, here's another compound for you.
### Prompt Please give the measured INHIBITION for this compound: `CS(=O)(=O)CCCN(CCc1cccc(F)c1)C1CC1`
### Response 7.36

###

Parameter INHIBITION: see the listing below.
# Test system: Plasmodium berghei
# assay-method-text: Screen against P. berghei liver stage (PbLuc), transformed with Luciferase, at 2uM
# Type: functional, HepG2
# condition-summary: tested at 2 uM
Screen size: about 68,000 compounds; about 2,700 (4%) showed an effect of 50% or more. The list comes from a sample in which strong results are over-represented; it also holds close analogues and randomly drawn compounds.
Write the number in % without appending the unit.

### Prompt # value lookup — system Plasmodium berghei, readout INHIBITION, item CN(C)CC(=O)N1CCC2(CC(=O)N(c3cccc(C#N)c3)C2)C1 (stereo unspecified)
### Response -3.08

### Prompt Please answer likewise for CC(C)(C)c1n[nH]cc1CNC1CCC(OCC(F)(F)F)CC1 (stereo unspecified)
### Response -8.63

### Prompt Please answer likewise for c1ccc2oc(CCCN3CCOC(Cn4cccn4)C3)nc2c1 (stereo unspecified)
### Response 14.11

### Prompt Please answer likewise for `COc1ccc(OC)c(CNC(=O)N2CCC(n3cncn3)CC2)c1`
### Response 3.06

### Prompt Please answer likewise for Cc1n[nH]c(C2CN(C(=O)CCc3cscn3)CCO2)n1 (stereo unspecified)
### Response -4.43

###

# System: Plasmodium berghei
# assay-method-text: Screen against P. berghei liver stage (PbLuc), transformed with Luciferase, at 2uM
# Format: functional, HepG2
# condition-summary: tested at 2 uM
The campaign covered roughly 68,000 compounds. About 2,700 (4%) showed an effect of 50% or more. Many of the other results were omitted from the sample, so strong results are more common in it than they were.
Parameter INHIBITION: see the listing below.
Answer with the number, then the unit.

CNC(=O)NC(=O)Cn1cc(-c2ccccc2)cn1; 54.92%
Cc1ccc(C(CNCc2cccc3c2OCO3)N2CCOCC2)o1 (stereo unspecified); 71.53%
CCN(Cc1c(F)cccc1F)Cn1nc(C)c2c(C)onc2c1=O; 62.13%
CCN(c1ccc(C(=O)N2CCCC(C)C2)cc1)S(=O)(=O)CC (stereo unspecified); -2.82%
COc1ccc(Cc2ncc3c(n2)CN(C(=O)CO)C3)cc1; 6.39%
CC(C)N(Cc1ccc(C#N)cc1)Cc1nnsc1Cl; 22.34%

### Prompt Please give the measured INHIBITION for this molecule: `O=C1CO[C@@H]2CN(S(=O)(=O)c3ccccc3)C[C@H]2N1CC1CC1`
### Response -30.12%

### Prompt Please answer likewise for `O=C(NCC1CC1)[C@@H]1CCO[C@@H]2CCN(Cc3ccsc3)C[C@H]21`
### Response 28.38%

###

# Test system: Plasmodium berghei
# assay-method-text: Screen against P. berghei liver stage (PbLuc), transformed with Luciferase, at 2uM
# Format: functional, HepG2
# condition-summary: tested at 2 uM
Among all 68,000 compounds or so, about 2,700 (4%) showed an effect of 50% or more. The full list was thinned out, with strong results kept by preference.
Parameter INHIBITION: see the listing below.
Write the number in % without appending the unit.

Here is how some compounds turned out for INHIBITION.
Cc1cccc(COc2ccc(C(C)N)cc2)c1 (centres undefined); 54.49
COCCCN1CCN(C(=O)C(c2cccc(F)c2)N(C)C)CC1 (centres undefined); 60.13
COCc1cc(NCCc2ccc(S(N)(=O)=O)cc2)n2nccc2n1; 32.88
Cc1nc(C2CCCN(C(=O)c3ccco3)C2)no1 (centres undefined); 51.32
CN(C)C(C(=O)NCCn1cccc1)c1cccc(F)c1 (centres undefined); 3.58
Cn1cnnc1C1CCCN(C(=O)c2cc(Cl)c3c(c2)OCO3)C1 (centres undefined); 3.9

### Prompt Please give the measured INHIBITION for this compound: Cc1nc(C2CCCN(C(=O)c3ccoc3)C2)no1 (centres undefined)
### Response -3.64

### Prompt Please answer likewise for Cc1cccc(COc2ccc(C(C)NS(N)(=O)=O)cc2)c1 (centres undefined)
### Response 9.42

### Prompt Please answer likewise for `CCc1sc(-c2nnc(CNCCn3cc(C)cn3)o2)cc1C`
### Response 53.03

### Prompt Please answer likewise for Cc1nc(C2CCCN(C(=O)c3cnn(C4CCCCC4)c3)C2)no1 (centres undefined)
### Response -31.72

### Prompt Please answer likewise for Cc1cccc(COc2ccc(C(C)NC(=O)CNC(N)=O)cc2)c1 (centres undefined)
### Response 32.26

### Prompt Please answer likewise for CCC(=O)N1CCC2(COCc3cnc(N4CCOCC4)nc32)C1 (centres undefined)
### Response 35.84

### Prompt Please answer likewise for `CN1CCN(C(=O)Cc2ccc(S(=O)(=O)C(F)F)cc2)CC1`
### Response 63.39

###

# Test system: Plasmodium berghei
# assay-method-text: Screen against P. berghei liver stage (PbLuc), transformed with Luciferase, at 2uM
# Format: functional, HepG2
# condition-summary: tested at 2 uM
Out of some 68,000 compounds screened, about 2,700 (4%) showed an effect of 50% or more. Only a selection was taken, and strong results are over-represented in it overall.
metric: INHIBITION
Answer with the number, then the unit.

O=C(CCc1ccc(Cl)cc1)N[C@@H]1CC[C@@H](O)[C@@H]1O; -11.3%
Cc1c(Br)cccc1C(=O)NCC1CCNCC1; 5%
CCC(CC)n1nc(C)cc1NC(=O)C1CCCO1 (stereo unspecified); 53.61%
NC(=O)c1cn[nH]c1C1CCCN1C(=O)c1cnccn1 (stereo unspecified); 39.5%
Cn1ccc(NCc2cc3cc(F)ccc3o2)n1; 5.1%

Alright, here's another compound for you.
### Prompt # value lookup — system Plasmodium berghei, readout INHIBITION, item `CCc1ccc(-c2cn3c(C(=O)N[C@H](C(N)=O)[C@@H](C)O)csc3n2)cc1`
### Response 61.82%

###

# Tested on: Plasmodium berghei
# assay-method-text: Screen against P. berghei liver stage (PbLuc), transformed with Luciferase, at 2uM
# Assay type: functional, HepG2
# condition-summary: tested at 2 uM
In all, about 68,000 compounds went through this assay and about 2,700 (4%) showed an effect of 50% or more. For the sample, strong results were picked, then their nearest neighbours and some compounds at random.
metric: INHIBITION (%)
Write the number in % without appending the unit.

### Prompt # value lookup — system Plasmodium berghei, readout INHIBITION, item `CCC(=O)N1CCN(C(=O)CCn2cccn2)CC1`
### Response -27.69

### Prompt Please answer likewise for Cc1cnn(CC2CN(c3nnc(C)c(C)c3C#N)CCO2)c1 (centres undefined)
### Response 54.2

### Prompt Please answer likewise for `Cc1ccc(S(=O)(=O)Cc2noc([C@@H]3C[C@@H](O)CN3C)n2)cc1`
### Response 32.59

### Prompt Please answer likewise for CCC(=O)N1CCCC(C(=O)c2cnn(-c3ccc(F)cc3)c2N)C1 (centres undefined)
### Response -4.78
